Assay: in vitro
Settings: human, hela cells, % viability
value-type: viability at 28.5 h, 10 µM (%)
Form entry: value (%) — number only.

Example entries and their recorded answers appear below.
{"compound": "CCC(Sc1nc(C)c(Cc2ccccc2)c(=O)[nH]1)C(=O)O (stereo not drawn) [CBK270058]", "endpoint-unit": "%", "experimental-result": 91.2}
{"compound": "COCCNC(=O)c1ccc(-c2cc(C)cs2)nc1NCC1CC1 [CBK106259]", "endpoint-unit": "%", "experimental-result": 106}
{"compound": "CCc1ccc(OCc2nnc(SCC(=O)NCCCC(=O)O)n2CC(C)C)cc1 [CBK295321]", "endpoint-unit": "%", "experimental-result": 101}
{"compound": "C=CCN1C(=O)CC2(C1=O)C(=O)N(Cc1ccc(S(=O)(=O)N(CC)CC)cc1)c1ccc(Cl)cc12 (stereo not drawn) [CBK075412]", "endpoint-unit": "%", "experimental-result": 98}
{"compound": "c1ccc2c(c1)nc(-c1cscn1)n2Cc1ccc(-c2nnn[nH]2)cc1 [CBK266979]", "endpoint-unit": "%", "experimental-result": 96.6}

Problem: Given OC(COc1ccc(OC(F)(F)F)cc1)CN1CCN(c2nc3ccc(Cl)cc3s2)CC1 (stereo not drawn) [CBK074639] , respond with its viability at 28.5 h, 10 µM.
Result: 122

Problem: Quick one: give measured viability at 28.5 h, 10 µM for CSc1nc(NC(=O)c2cccs2)cc(N2CCNCC2)n1 [CBK050315T]
Result: 89.7

Problem: Output measured viability at 28.5 h, 10 µM for this item: COCC(=O)N1C2CCC(C2)[C@@H]1COc1ccc(F)cc1 (stereo partly drawn) [CBK284603]
Result: 109

Problem: State its viability at 28.5 h, 10 µM for this compound: CCn1nc(C)c(C2NC(=O)c3ccccc3N2)c1C (stereo not drawn) [CBK288214]
Result: 88.6

The reported measurements were obtained from paper PMC12040169.
